Test system: KHYG-1 (IL-2 2.5 ng/mL)
Assay: drug sensitivity score (DSS) (DSS units); higher = more sensitive; extreme values may be limits of the assay
Details: 72 h
# drug sensitivity score per record follows
Observed property: drug sensitivity score

[[record]]
molecule = "CC(C)N(CCCNC(=O)Nc1ccc(C(C)(C)C)cc1)C[C@H]1O[C@@H](n2cc(Br)c3c(N)ncnc32)[C@H](O)[C@@H]1O [SGC0946] (max concentration tested 10000 nM)"
observed_value = 0.48

[[record]]
molecule = "CC(C)C(=O)Nc1ccc([N+](=O)[O-])c(C(F)(F)F)c1 [Flutamide] (max concentration tested 10000 nM)"
observed_value = 0

[[record]]
molecule = "O=C(NOC[C@H](O)CO)c1ccc(F)c(F)c1Nc1ccc(I)cc1F (max concentration tested 1000 nM)"
observed_value = 9.09

[[record]]
molecule = "O=C1c2c(O)ccc(O)c2C(=O)c2c(NCCNCCO)ccc(NCCNCCO)c21 [Mitoxantrone] (max concentration tested 1000 nM)"
observed_value = 6.72

[[record]]
molecule = "O=[N+]([O-])c1ccc2c(c1)S(=O)(=O)C=C2 [Stattic] (max concentration tested 50000 nM)"
observed_value = 17.5

[[record]]
molecule = "Cc1nc(C(=O)NCC(=O)O)c(O)c2ccc(Oc3ccccc3)cc12 [FG-4592] (max concentration tested 10000 nM)"
observed_value = 1


###

Test system: DERL-7 (IL-2 2.5 ng/mL);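 note: normalised to DMSO-only wells as negative and benzethonium chloride as positive control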
Test: percent inhibition of viability; higher = more inhibition
Conditions: 72 h; 1000 nM
# percent inhibition of viability per record follows
Observed property: percent inhibition of viability (%)

[[record]]
molecule = "Nc1cccc2c1CN(C1CCC(=O)NC1=O)C2=O (stereo not given) [Lenalidomide] (max concentration tested 100000 nM)"
target_under_test = "DERL-7 (IL-2 2.5 ng/mL)"
observed_value = -6.54

[[record]]
molecule = "O=c1ncn2nc(Sc3ccc(F)cc3F)ccc2c1-c1c(Cl)cccc1Cl [VX 745] (max concentration tested 10000 nM)"
target_under_test = "DERL-7 (IL-2 2.5 ng/mL)"
observed_value = -1.44

[[record]]
molecule = "Oc1c2ccccc2c2c3c(cccc13)N=N2 (max concentration tested 100000 nM)"
target_under_test = "DERL-7 (IL-2 2.5 ng/mL)"
observed_value = 21.6

[[record]]
molecule = "C[C@@H]1CN(Cc2ccc(F)cc2)[C@@H](C)CN1C(=O)c1cc2c(C(=O)C(=O)N(C)C)cn(C)c2cc1Cl [Talmapimod] (max concentration tested 10000 nM)"
target_under_test = "DERL-7 (IL-2 2.5 ng/mL)"
observed_value = 2.18

[[record]]
molecule = "COc1cc(N2CCN(C)CC2)ccc1Nc1nccc(-c2cn(C)c3cnccc23)n1 [AZ191] (max concentration tested 10000 nM)"
target_under_test = "DERL-7 (IL-2 2.5 ng/mL)"
observed_value = 22.2

[[record]]
molecule = "CC(=O)[C@]1(O)Cc2c(O)c3c(c(O)c2[C@@H](O[C@H]2C[C@H](N)[C@H](O)[C@H](C)O2)C1)C(=O)c1ccccc1C3=O [Idarubicin] (max concentration tested 1000 nM)"
target_under_test = "DERL-7 (IL-2 2.5 ng/mL)"
observed_value = 101

[[record]]
molecule = "C[C@@H](Oc1ccc2[nH]nc(/C=C/c3cnn(CCO)c3)c2c1)c1c(Cl)cncc1Cl (max concentration tested 1000 nM)"
target_under_test = "DERL-7 (IL-2 2.5 ng/mL)"
observed_value = 100

[[record]]
molecule = "N[C@@H]1CCCN(c2c(/C=C3\\SC(=O)NC3=O)cccc2-c2ccccc2)C1 [AZD1208] (max concentration tested 10000 nM)"
target_under_test = "DERL-7 (IL-2 2.5 ng/mL)"
observed_value = 40.2

[[record]]
molecule = "CN(C[C@@H]1COCCO1)S(=O)(=O)Nc1ccc2ccc3ncc(-c4cnn(C)c4)cc3c(=O)c2c1 [MK-2461] (max concentration tested 10000 nM)"
target_under_test = "DERL-7 (IL-2 2.5 ng/mL)"
observed_value = 10.2

[[record]]
molecule = "CN(C)/N=N/c1[nH]cnc1C(N)=O [Dacarbazine] (max concentration tested 10000 nM)"
target_under_test = "DERL-7 (IL-2 2.5 ng/mL)"
observed_value = -6.85

[[record]]
molecule = "O=NN(CCCl)C(=O)NC1CCCCC1 [Lomustine] (max concentration tested 10000 nM)"
target_under_test = "DERL-7 (IL-2 2.5 ng/mL)"
observed_value = -3.2

[[record]]
molecule = "CCNC(=O)c1noc(-c2cc(C(C)C)c(O)cc2O)c1-c1ccc(CN2CCOCC2)cc1 [Luminespib] (max concentration tested 1000 nM)"
target_under_test = "DERL-7 (IL-2 2.5 ng/mL)"
observed_value = 100

[[record]]
molecule = "CN(C)C[C@@H]1CCn2cc(c3ccccc32)C2=C(C(=O)NC2=O)c2cn(c3ccccc23)CCO1 [Ruboxistaurin] (max concentration tested 10000 nM)"
target_under_test = "DERL-7 (IL-2 2.5 ng/mL)"
observed_value = 40.6

[[record]]
molecule = "Nc1ncnc2c1c(COc1cccc(Cl)c1)nn2C1CCOCC1 (max concentration tested 10000 nM)"
target_under_test = "DERL-7 (IL-2 2.5 ng/mL)"
observed_value = 4.1

[[record]]
molecule = "Cc1nc(Nc2ncc(C(=O)Nc3c(C)cccc3Cl)s2)cc(N2CCN(CCO)CC2)n1 [Dasatinib] (max concentration tested 1000 nM)"
target_under_test = "DERL-7 (IL-2 2.5 ng/mL)"
observed_value = 23.2


###

Tested on: NK-92 (IL-2 2.5 ng/mL)
Test: drug sensitivity score (DSS) (DSS units); higher = more sensitive; extreme values may be limits of the assay
Settings: 72 h
Class Yes: drug sensitivity score at least 2. Class No: drug sensitivity score below 2.

[[record]]
compound = "Nc1cccc2c1CN(C1CCC(=O)NC1=O)C2=O (stereo not given) [Lenalidomide] (max concentration tested 100000 nM)"
label_class = "Yes"

[[record]]
compound = "O=C(NC1CCNCC1)c1n[nH]cc1NC(=O)c1c(Cl)cccc1Cl [AT7519] (max concentration tested 10000 nM)"
label_class = "Yes"

[[record]]
compound = "C#Cc1cccc(Nc2ncnc3cc(OCCOC)c(OCCOC)cc23)c1 [Erlotinib] (max concentration tested 10000 nM)"
label_class = "Yes"

[[record]]
compound = "COc1cc2nccc(Oc3ccc(NC(=O)C4(C(=O)Nc5ccc(F)cc5)CC4)cc3)c2cc1OC [Cabozantinib] (max concentration tested 1000 nM)"
label_class = "No"

[[record]]
compound = "COc1ccc(S(=O)(=O)Nc2cccnc2Nc2ccc(O)cc2)cc1 [ABT-751] (max concentration tested 10000 nM)"
label_class = "Yes"

[[record]]
compound = "CON(C)C(=O)N1N=C(c2cc(F)ccc2F)S[C@@]1(CCCN)c1ccccc1 [ARRY-520] (max concentration tested 1000 nM)"
label_class = "Yes"

[[record]]
compound = "CN[C@@H]1C[C@H]2O[C@@](C)([C@@H]1OC)n1c3ccccc3c3c4c(c5c6ccccc6n2c5c31)C(=O)N[C@H]4O [UCN-01] (max concentration tested 10000 nM)"
label_class = "Yes"

[[record]]
compound = "CNC(=O)c1cc(Oc2ccc(NC(=O)Nc3ccc(Cl)c(C(F)(F)F)c3)cc2)ccn1 [Sorafenib] (max concentration tested 1000 nM)"
label_class = "No"

[[record]]
compound = "NC(=O)Nc1sc(-c2ccc(F)cc2)cc1C(N)=O [TPCA-1] (max concentration tested 25000 nM)"
label_class = "Yes"

[[record]]
compound = "COc1ccc(-c2nc(N3CCOCC3)c3sc(CN(C)c4ncc(C(=O)NO)cn4)cc3n2)cn1 [CUDC-907] (max concentration tested 10000 nM)"
label_class = "Yes"

[[record]]
compound = "CCCCC/C=C/C=C1/C(=O)C=C[C@@H]1C/C=C\\CCCC(=O)O [15D-PGJ2] (max concentration tested 3000 nM)"
label_class = "No"

[[record]]
compound = "Cc1cn(-c2cc(NC(=O)c3ccc(C)c(Nc4nccc(-c5cccnc5)n4)c3)cc(C(F)(F)F)c2)cn1 [Nilotinib] (max concentration tested 10000 nM)"
label_class = "Yes"

[[record]]
compound = "Cn1cc(CNCC2CCN(c3ncc(C(=O)NO)cn3)CC2)c2ccccc21 [Quisinostat] (max concentration tested 1000 nM)"
label_class = "Yes"

[[record]]
compound = "Cc1ccc(NC(=O)c2ccc(CN3CC[C@H](N(C)C)C3)c(C(F)(F)F)c2)cc1Nc1nccc(-c2cncnc2)n1 [Bafetinib] (max concentration tested 1000 nM)"
label_class = "Yes"

[[record]]
compound = "Nc1ccn([C@@H]2O[C@H](CO)[C@@H](O)C2(F)F)c(=O)n1 [Gemcitabine] (max concentration tested 1000 nM)"
label_class = "Yes"

[[record]]
compound = "O=C(NOCC1CC1)c1ccc(F)c(F)c1Nc1ccc(I)cc1Cl (max concentration tested 10000 nM)"
label_class = "Yes"

[[record]]
compound = "COc1cc2c(N3CCN(C(=O)Nc4ccc(OC(C)C)cc4)CC3)ncnc2cc1OCCCN1CCCCC1 [Tandutinib] (max concentration tested 1000 nM)"
label_class = "Yes"

[[record]]
compound = "CC(C)C(=O)Nc1ccc([N+](=O)[O-])c(C(F)(F)F)c1 [Flutamide] (max concentration tested 10000 nM)"
label_class = "Yes"

[[record]]
compound = "O=NN(CCCl)C(=O)NC1CCCCC1 [Lomustine] (max concentration tested 10000 nM)"
label_class = "No"

[[record]]
compound = "COc1cc2c(cc1-c1c(C)noc1C)ncc1[nH]c(=O)n([C@H](C)c3ccccn3)c12 [I-BET151] (max concentration tested 10000 nM)"
label_class = "No"

[[record]]
compound = "CS(=O)(=O)c1ccc(C2=C(c3ccccc3)C(=O)OC2)cc1 [Rofecoxib] (max concentration tested 10000 nM)"
label_class = "No"

[[record]]
compound = "COc1ccc(-c2ccc3ncc4c(c3c2)n(-c2ccc(N3CCNCC3)c(C(F)(F)F)c2)c(=O)n4C)cn1 [NVP-BGT226] (max concentration tested 1000 nM)"
label_class = "Yes"

[[record]]
compound = "C[C@@H](Oc1ccc2[nH]nc(/C=C/c3cnn(CCO)c3)c2c1)c1c(Cl)cncc1Cl (max concentration tested 1000 nM)"
label_class = "Yes"

[[record]]
compound = "O=C(O)c1ccc2c(c1)nc(Nc1cccc(Cl)c1)c1ccncc12 [Silmitasertib] (max concentration tested 10000 nM)"
label_class = "Yes"

[[record]]
compound = "Cc1c(Cn2c(C)nc3c(C(=O)O)cc(N4CCOCC4)cc32)cccc1C(F)(F)F (max concentration tested 10000 nM)"
label_class = "Yes"

